Biological target: GABARAP, O95166
Sequence (O95166 whole entry, the tested form may be a part): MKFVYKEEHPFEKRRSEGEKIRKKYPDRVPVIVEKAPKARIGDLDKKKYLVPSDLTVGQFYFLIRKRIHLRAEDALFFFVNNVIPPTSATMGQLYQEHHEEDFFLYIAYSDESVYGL
Test: median log2 fold change of GCK-ALFA target abundance (FLAG IP / Myc IP barcode read proportion) (log2 ratio); each designed protein is fused to an ALFA-tag nanobody in HEK293 cells to bring the named protein to FLAG-tagged glucokinase (GCK); Myc marks an untargeted standard; higher = target protein stabilised (more abundant)
Conditions: target protein: 3xFLAG-MCP-GCK-ALFA reporter; HEK293 landing pad (RPLP)
The full ranking holds about 4,500 sequences; the median of “median log2 fold change of GCK-ALFA target abundance (FLAG IP / Myc IP barcode read proportion)” is about 0.078, and the lowest 2% start at about -0.6. The sample as a whole holds a higher share of the lowest values than the screen did.
Listing of entries alongside the reported median log2 fold change.
Note: the reply should be a number with no unit written.

# example entries with known answers
GBRAP_84_6999 (protein) STDEEIIELAKEIFDRVKGEAAVKILALVLLKVTGETATRILNYALERDPQVAYDALSLAYEVVSEDKEEELEEEARRLMAEESPEVRAKFERLLELMKA
-0.601
GBRAP_160_4147 (protein) SAELKALIEEIREITEEAIKLMEGETPEEAKVIARVALGEIVMLVFSNEAVSEETEEEVGEVADEAEAHLRANPDLTVEEIKAILREAGEEVIEIIEKEV
-0.617
GBRAP_26_5452 (protein) MEEKLEALRDRLVELADELLDPETAALLKVEVDNIVALAELELEEANGDLEKELAVVEEMLEDLEEALDDLEVPEEVKEKLLEAAREAAEEIKEYLKKKS
-0.454
GBRAP_9_7158 (protein) MDELVAKLREVIEDAFEEIKEVVPEEVKPIVEKLREEAEKRLEELEEDPEATPEELVEEAKRILREFRERMKKEVDEETAKIVDAIVDTAELEIEEIEEE
0.0143

Ask | Returns the measured median log2 fold change for the input binder. Input: GBRAP_11_2682 (protein) RKEALERAAELAERAAELAERLLEEGVDNEELLEELRRALEELRRLVKEHLDEAHRTLVEIAEEELEEALADPENAAAHIERLLAAARVLRYNLEEELEE
Reply | -0.882

Ask | Note, next up: GBRAP_52_5996 (protein) AEARIRALAEELVAAVLAGDEERVRAILRRIAAELSDEEIVETVRLATRLLARDPRATLEDLARFIDIVEEVLEEEGKSDRLIADVLGAIAEAIAEVEAE
Reply | -0.179
